Biological target: αvβ6 (Homo sapiens, UniProt P06756+P18564)
Construct: endogenous in cells
Sequence (P06756 31-889 limits assumed): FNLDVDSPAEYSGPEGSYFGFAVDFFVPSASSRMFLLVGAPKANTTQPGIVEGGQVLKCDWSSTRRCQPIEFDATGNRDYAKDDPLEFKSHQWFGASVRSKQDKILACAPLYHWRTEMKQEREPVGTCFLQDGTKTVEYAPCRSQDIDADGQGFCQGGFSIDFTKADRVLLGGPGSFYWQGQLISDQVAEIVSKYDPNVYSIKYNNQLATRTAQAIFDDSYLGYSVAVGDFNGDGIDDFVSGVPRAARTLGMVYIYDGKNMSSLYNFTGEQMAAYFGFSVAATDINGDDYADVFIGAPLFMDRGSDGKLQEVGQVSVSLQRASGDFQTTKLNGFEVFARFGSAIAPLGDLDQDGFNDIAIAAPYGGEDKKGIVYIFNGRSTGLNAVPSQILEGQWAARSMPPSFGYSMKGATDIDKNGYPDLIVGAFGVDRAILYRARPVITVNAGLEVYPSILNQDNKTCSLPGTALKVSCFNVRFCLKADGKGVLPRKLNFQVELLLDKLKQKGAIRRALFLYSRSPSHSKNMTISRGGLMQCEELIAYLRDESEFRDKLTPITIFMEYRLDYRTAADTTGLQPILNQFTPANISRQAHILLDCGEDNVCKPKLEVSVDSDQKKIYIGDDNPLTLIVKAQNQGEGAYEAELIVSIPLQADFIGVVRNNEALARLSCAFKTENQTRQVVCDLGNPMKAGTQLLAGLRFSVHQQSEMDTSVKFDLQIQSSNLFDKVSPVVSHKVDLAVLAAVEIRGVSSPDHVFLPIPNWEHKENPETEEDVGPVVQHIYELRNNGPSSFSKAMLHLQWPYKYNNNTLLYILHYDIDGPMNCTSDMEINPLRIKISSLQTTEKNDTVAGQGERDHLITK
Sequence (P06756 891-1048 limits assumed): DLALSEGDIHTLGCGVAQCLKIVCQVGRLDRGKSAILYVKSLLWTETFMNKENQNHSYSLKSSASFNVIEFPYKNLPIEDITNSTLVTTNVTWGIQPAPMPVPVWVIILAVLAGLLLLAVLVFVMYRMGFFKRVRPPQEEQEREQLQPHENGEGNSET
Sequence (P18564 22-788): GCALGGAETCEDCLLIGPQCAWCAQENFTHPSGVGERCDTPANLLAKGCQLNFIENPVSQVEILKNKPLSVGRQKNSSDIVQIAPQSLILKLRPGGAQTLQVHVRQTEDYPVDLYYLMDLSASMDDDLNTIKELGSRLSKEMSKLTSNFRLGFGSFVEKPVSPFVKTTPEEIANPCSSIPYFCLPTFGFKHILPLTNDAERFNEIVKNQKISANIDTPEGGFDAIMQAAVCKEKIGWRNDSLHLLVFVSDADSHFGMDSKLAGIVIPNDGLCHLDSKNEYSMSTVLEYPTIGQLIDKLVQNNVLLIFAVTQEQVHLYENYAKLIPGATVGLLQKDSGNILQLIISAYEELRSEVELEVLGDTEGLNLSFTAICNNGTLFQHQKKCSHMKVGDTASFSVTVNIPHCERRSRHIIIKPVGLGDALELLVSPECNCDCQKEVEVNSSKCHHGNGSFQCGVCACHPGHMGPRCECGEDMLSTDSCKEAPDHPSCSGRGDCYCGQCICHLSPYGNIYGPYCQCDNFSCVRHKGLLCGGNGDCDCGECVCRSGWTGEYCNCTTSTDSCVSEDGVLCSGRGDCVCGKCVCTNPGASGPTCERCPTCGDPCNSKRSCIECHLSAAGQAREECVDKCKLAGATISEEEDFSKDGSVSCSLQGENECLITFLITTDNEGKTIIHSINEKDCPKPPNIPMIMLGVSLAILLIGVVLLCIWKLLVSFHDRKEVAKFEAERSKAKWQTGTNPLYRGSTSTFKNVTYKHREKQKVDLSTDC
Experiment: αvβ6 cell adhesion inhibition test (HT-29 cells on recombinant human LAP protein)
Conditions: recombinant human LAP coating, 200 μM MnCl2, 1 hour, read-out: IC50 (rate of inhibition of cell adhesion, αvβ6)
quantity: IC50

// IC50 value for O=C(O)C[C@H](NC(=O)CNC(=O)c1cc(NC2=NCC(F)CN2)c2cn[nH]c2c1)c1cccc(OC(F)(F)F)c1 (stereo partly shown) [Example 36-(b)] : < 3 nM

// IC50 value for O=C(O)C[C@H](NC(=O)CNC(=O)c1cc(NC2=NCC(F)CN2)c2cn[nH]c2c1)c1cc(Br)cc(C(F)(F)F)c1 (stereo partly shown) [Example 2-(b)] : < 3 nM

// IC50 value for O=C(O)C[C@H](NC(=O)CNC(=O)c1cc(NC2=NCC(F)CN2)c2cn[nH]c2c1)c1cccc(OC2CC2)c1 (stereo partly shown) [Example 40-(b)] : < 3 nM

// IC50 value for Cc1cc(C)n(-c2cccc([C@H](CC(=O)O)NC(=O)CNC(=O)c3cc(NC4=NCC(F)CN4)c4cn[nH]c4c3)c2)n1 (stereo partly shown) [Example 44-(b)] : < 3 nM

// IC50 value for O=C(O)C[C@H](NC(=O)CNC(=O)c1cc(NC2=NCC(F)CN2)c2cn[nH]c2c1)c1ccc(OC(F)F)cc1 (stereo partly shown) [Example 46-(b)] : 3 to 10 nM

// IC50 value for O=C(O)C[C@H](NC(=O)CNC(=O)c1cc(NC2=NCC(F)CN2)c2cn[nH]c2c1)c1cccc(-n2cccn2)c1 (stereo partly shown) [Example 43-(b)] : < 3 nM

// IC50 value for O=C(O)C[C@H](NC(=O)CNC(=O)c1cc(NC2=NCC(F)CN2)c2cn[nH]c2c1)c1cccc(C(F)(F)F)c1 (stereo partly shown) [Example 35-(b)] : < 3 nM

// IC50 value for O=C(O)C[C@H](NC(=O)CNC(=O)c1cc(NC2=NCC(F)CN2)c2cn[nH]c2c1)c1cc(Br)cc(OC(F)(F)F)c1 (stereo partly shown) [Example 32-(b)] : < 3 nM

// IC50 value for O=C(O)C[C@H](NC(=O)CNC(=O)c1cc(NC2=NCC(F)CN2)c2cn[nH]c2c1)c1cccc(C(F)F)c1 (stereo partly shown) [Example 38-(b)] : < 3 nM

// IC50 value for O=C(O)C[C@H](NC(=O)CNC(=O)c1cc(NC2=NCC(F)CN2)c2cn[nH]c2c1)c1cccc(C(F)(F)F)c1Cl (stereo partly shown) [Example 10-(b)] : ≥ 100 nM

// IC50 value for COc1cc([C@H](CC(=O)O)NC(=O)CNC(=O)c2cc(NC3=NCC(F)CN3)c3cn[nH]c3c2)cc(C(F)(F)F)c1 (stereo partly shown) [Example 5-(b)] : < 3 nM

// IC50 value for O=C(O)C[C@H](NC(=O)CNC(=O)c1cc(NC2=NCC(F)CN2)c2c(F)n[nH]c2c1)c1cc(Cl)cc(C(F)(F)F)c1 (stereo partly shown) [Example 48-(b)] : < 3 nM

// IC50 value for Cc1cc([C@H](CC(=O)O)NC(=O)CNC(=O)c2cc(NC3=NCC(F)CN3)c3cn[nH]c3c2)cc(C(F)(F)F)c1 (stereo partly shown) [Example 4-(b)] : < 3 nM

###

Target: αvβ1 (UniProt G3HZ55+P06756)
Sequence (P06756 31-889 limits assumed): as the sequence (P06756 31-889 limits assumed) above
Sequence (P06756 891-1048 limits assumed): as the sequence (P06756 891-1048 limits assumed) above
Sequence (G3HZ55 21-798): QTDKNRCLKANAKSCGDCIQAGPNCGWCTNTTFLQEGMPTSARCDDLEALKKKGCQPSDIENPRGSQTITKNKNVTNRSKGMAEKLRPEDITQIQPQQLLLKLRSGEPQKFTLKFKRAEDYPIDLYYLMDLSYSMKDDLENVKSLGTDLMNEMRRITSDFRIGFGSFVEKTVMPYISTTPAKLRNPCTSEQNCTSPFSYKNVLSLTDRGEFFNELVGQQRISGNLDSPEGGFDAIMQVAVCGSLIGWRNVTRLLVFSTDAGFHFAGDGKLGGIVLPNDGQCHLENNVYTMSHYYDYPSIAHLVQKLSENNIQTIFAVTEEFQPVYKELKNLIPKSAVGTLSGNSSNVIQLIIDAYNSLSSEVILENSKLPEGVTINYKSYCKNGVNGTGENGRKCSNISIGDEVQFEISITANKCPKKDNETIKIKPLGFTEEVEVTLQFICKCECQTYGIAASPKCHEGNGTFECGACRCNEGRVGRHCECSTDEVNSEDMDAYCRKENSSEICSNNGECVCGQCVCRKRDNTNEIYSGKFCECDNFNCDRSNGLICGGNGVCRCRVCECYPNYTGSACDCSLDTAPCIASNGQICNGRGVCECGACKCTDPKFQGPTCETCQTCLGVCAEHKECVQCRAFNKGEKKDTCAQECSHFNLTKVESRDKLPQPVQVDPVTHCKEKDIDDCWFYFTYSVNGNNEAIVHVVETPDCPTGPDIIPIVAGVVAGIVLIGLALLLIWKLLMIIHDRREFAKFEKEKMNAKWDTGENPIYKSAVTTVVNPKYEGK
Assay: αvβ1 cell adhesion inhibition test (αv-transfected CHO cells on human fibronectin)
Settings: human fibronectin coating, 1 mM MnCl2, 1 hour, read-out: IC50 (rate of inhibition of cell adhesion, αvβ1)
quantity: IC50

// IC50 value for O=C(O)C[C@H](NC(=O)CNC(=O)c1cc(NC2=NCC(F)CN2)c2cn[nH]c2c1)c1cc(Cl)c(F)c(C(F)(F)F)c1 (stereo partly drawn) : < 3 nM

// IC50 value for O=C(O)C[C@H](NC(=O)CNC(=O)c1cc(NC2=NCC(F)CN2)c2cn[nH]c2c1)c1cc(Br)ccc1F (stereo partly drawn) : < 3 nM

// IC50 value for O=C(O)C[C@H](NC(=O)CNC(=O)c1cc(NC2=NCC(F)CN2)c2cn[nH]c2c1)c1cc(I)cc(C(F)(F)F)c1 (stereo partly drawn) : 3 to 10 nM

// IC50 value for O=C(O)C[C@H](NC(=O)CNC(=O)c1cc(NC2=NCC(F)CN2)c2cn[nH]c2c1)c1cc(Br)cc(OC(F)F)c1 (stereo partly drawn) : < 3 nM

// IC50 value for COc1ccc([C@H](CC(=O)O)NC(=O)CNC(=O)c2cc(NC3=NCC(F)CN3)c3cn[nH]c3c2)cc1Br (stereo partly drawn) : < 3 nM

// IC50 value for O=C(O)C[C@H](NC(=O)CNC(=O)c1cc(NC2=NCC(F)CN2)c2cn[nH]c2c1)c1ccc(OC(F)F)cc1 (stereo partly drawn) : 3 to 10 nM

###

Assign pIC50 to each entry below.
Molecular target: αvβ1 (UniProt G3HZ55+P06756)
Test: αvβ1 cell adhesion inhibition test (αv-transfected CHO cells on human fibronectin)
Details: human fibronectin coating, 1 mM MnCl2, 1 hour, read-out: IC50 (rate of inhibition of cell adhesion, αvβ1)
pIC50: −log10 of the molar value.

// pIC50 value for Cc1cc([C@H](CC(=O)O)NC(=O)CNC(=O)c2cc(NC3=NCC(F)CN3)c3cn[nH]c3c2)cc(C(F)(F)F)c1 (stereo partly drawn) : 8.00 to 8.52

// pIC50 value for O=C(O)C[C@H](NC(=O)CNC(=O)c1cc(NC2=NCC(F)CN2)c2cn[nH]c2c1)c1cc(Cl)cc(OC(F)F)c1 (stereo partly drawn) : > 8.52

// pIC50 value for O=C(O)C[C@H](NC(=O)CNC(=O)c1cc(NC2=NCC(F)CN2)c2cn[nH]c2c1)c1cc(C(F)(F)F)ccc1Cl (stereo partly drawn) : 8.00 to 8.52

// pIC50 value for O=C(O)C[C@H](NC(=O)CNC(=O)c1cc(NC2=NCC(F)CN2)c2cn[nH]c2c1)c1cc(Br)cc(I)c1 (stereo partly drawn) : > 8.52

// pIC50 value for O=C(O)C[C@H](NC(=O)CNC(=O)c1cc(NC2=NCC(F)CN2)c2cn[nH]c2c1)c1cccc(OC(F)F)c1 (stereo partly drawn) : 8.00 to 8.52

// pIC50 value for O=C(O)C[C@H](NC(=O)CNC(=O)c1cc(NC2=NCC(F)CN2)c2cn[nH]c2c1)c1cc(C(F)(F)F)ccc1F (stereo partly drawn) : 8.00 to 8.52

// pIC50 value for O=C(O)C[C@H](NC(=O)CNC(=O)c1cc(NC2=NCC(F)CN2)cc2[nH]ncc12)c1cccc(C(F)(F)F)c1 (stereo partly drawn) : 8.00 to 8.52

// pIC50 value for O=C(O)C[C@H](NC(=O)CNC(=O)c1cc(NC2=NCC(F)CN2)c2cn[nH]c2c1)c1cccc(C(F)(F)F)c1Cl (stereo partly drawn) : ≤ 7.00

// pIC50 value for O=C(O)C[C@H](NC(=O)CNC(=O)c1cc(NC2=NCC(F)CN2)cc2[nH]ncc12)c1cc(Br)cc(C(F)(F)F)c1 (stereo partly drawn) : > 8.52

// pIC50 value for O=C(O)C[C@H](NC(=O)CNC(=O)c1cc(NC2=NCC(F)CN2)c2cn[nH]c2c1)c1cc(Cl)cc(C(F)(F)F)c1 (stereo partly drawn) : > 8.52

// pIC50 value for O=C(O)C[C@H](NC(=O)CNC(=O)c1cc(NC2=NCC(F)CN2)c2cn[nH]c2c1)c1cc(Cl)cc(OC(F)(F)F)c1 (stereo partly drawn) : 8.00 to 8.52

// pIC50 value for O=C(O)C[C@H](NC(=O)CNC(=O)c1cc(NC2=NCC(F)CN2)c2cn[nH]c2c1)c1cccc(Cl)c1 (stereo partly drawn) : 8.00 to 8.52

// pIC50 value for O=C(O)C[C@H](NC(=O)CNC(=O)c1cc(NC2=NCC(F)CN2)c2cn[nH]c2c1)c1ccc(F)c(C(F)(F)F)c1 (stereo partly drawn) : > 8.52

// pIC50 value for O=C(O)C[C@H](NC(=O)CNC(=O)c1cc(NC2=NCC(F)CN2)c2cn[nH]c2c1)c1cccc(C(F)(F)F)c1 (stereo partly drawn) : 8.00 to 8.52

// pIC50 value for O=C(O)C[C@H](NC(=O)CNC(=O)c1cc(NC2=NCC(F)CN2)c2cn[nH]c2c1)c1cccc(-n2cccn2)c1 (stereo partly drawn) : 8.00 to 8.52

###

Assay: Transcellular transport test using Caco2 cell
Assay type: in vitro ADME
Conditions: human, Caco-2; Caco2 monolayer, A-to-B, 10 μM compound, pH 7.4, 90 minutes
quantity: Papp A→B at 90 min, 10 μM

// Papp A→B at 90 min, 10 μM value for O=C(O)C[C@H](NC(=O)CNC(=O)c1cc(NC2=NCC(F)CN2)c2cn[nH]c2c1)c1cc(Cl)cc(I)c1 (stereo partly shown) [Example 21-(b)] : > 1 ×10⁻⁶ cm/s

// Papp A→B at 90 min, 10 μM value for Cc1cc(C)n(-c2cccc([C@H](CC(=O)O)NC(=O)CNC(=O)c3cc(NC4=NCC(F)CN4)c4cn[nH]c4c3)c2)n1 (stereo partly shown) [Example 44-(b)] : 0.5 to 1 ×10⁻⁶ cm/s

// Papp A→B at 90 min, 10 μM value for O=C(O)C[C@H](NC(=O)CNC(=O)c1cc(NC2=NCC(F)CN2)cc2[nH]ncc12)c1cc(Br)cc(C(F)(F)F)c1 (stereo partly shown) [Example 53-(b)] : 0.1 to 0.5 ×10⁻⁶ cm/s

// Papp A→B at 90 min, 10 μM value for O=C(O)C[C@H](NC(=O)CNC(=O)c1cc(NC2=NCC(F)CN2)c2cn[nH]c2c1)c1cc(OC(F)F)cc(OC(F)F)c1 (stereo partly shown) [Example 30-(b)] : 0.5 to 1 ×10⁻⁶ cm/s

// Papp A→B at 90 min, 10 μM value for O=C(O)C[C@H](NC(=O)CNC(=O)c1cc(NC2=NCC(F)CN2)c2cn[nH]c2c1)c1cccc(OC2CC2)c1 (stereo partly shown) [Example 40-(b)] : > 1 ×10⁻⁶ cm/s

// Papp A→B at 90 min, 10 μM value for O=C(O)C[C@H](NC(=O)CNC(=O)c1cc(NC2=NCC(F)CN2)c2cn[nH]c2c1)c1cccc(Cl)c1 (stereo partly shown) [Example 41-(b)] : > 1 ×10⁻⁶ cm/s

// Papp A→B at 90 min, 10 μM value for O=C(O)C[C@H](NC(=O)CNC(=O)c1cc(NC2=NCC(F)CN2)c2cn[nH]c2c1)c1cc(OC(F)F)ccc1F (stereo partly shown) [Example 28-(b)] : > 1 ×10⁻⁶ cm/s

// Papp A→B at 90 min, 10 μM value for Cc1ccc([C@H](CC(=O)O)NC(=O)CNC(=O)c2cc(NC3=NCC(F)CN3)c3cn[nH]c3c2)cc1C(F)(F)F (stereo partly shown) [Example 14-(b)] : > 1 ×10⁻⁶ cm/s

// Papp A→B at 90 min, 10 μM value for O=C(O)C[C@H](NC(=O)CNC(=O)c1cc(NC2=NCC(F)CN2)c2cn[nH]c2c1)c1ccc(C(F)(F)F)cc1 (stereo partly shown) [Example 47-(b)] : > 1 ×10⁻⁶ cm/s

// Papp A→B at 90 min, 10 μM value for O=C(O)C[C@H](NC(=O)CNC(=O)c1cc(NC2=NCC(F)CN2)cc2[nH]ncc12)c1cc(Cl)cc(C(F)(F)F)c1 (stereo partly shown) [Example 52-(b)] : 0.1 to 0.5 ×10⁻⁶ cm/s

// Papp A→B at 90 min, 10 μM value for O=C(O)C[C@H](NC(=O)CNC(=O)c1cc(NC2=NCC(F)CN2)c2cn[nH]c2c1)c1cccc(N2CCOCC2)c1 (stereo partly shown) [Example 45-(b)] : 0.5 to 1 ×10⁻⁶ cm/s

// Papp A→B at 90 min, 10 μM value for O=C(O)C[C@H](NC(=O)CNC(=O)c1cc(NC2=NCC(F)CN2)c2cn[nH]c2c1)c1cc(F)cc(C(F)(F)F)c1 (stereo partly shown) [Example 6-(b)] : > 1 ×10⁻⁶ cm/s

// Papp A→B at 90 min, 10 μM value for O=C(O)C[C@H](NC(=O)CNC(=O)c1cc(NC2=NCC(F)CN2)c2cn[nH]c2c1)c1cc(Br)ccc1F (stereo partly shown) [Example 23-(b)] : > 1 ×10⁻⁶ cm/s

Data provenance: patent US20230192661A1
